B1: LINE1-full (parent)
chain: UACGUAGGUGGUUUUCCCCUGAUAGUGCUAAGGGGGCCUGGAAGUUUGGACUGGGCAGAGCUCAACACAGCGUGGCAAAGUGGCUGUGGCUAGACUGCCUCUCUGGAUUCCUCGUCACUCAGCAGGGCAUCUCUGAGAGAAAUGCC

Variants of: B1
assay-name: self-cleavage, relative activity (ratio to wild type); higher = more cleavage; in vitro, sequencing; the parent is a self-cleaving ribozyme
Listed next: entries and their corresponding self-cleavage.

U13C U45G
1.46
G27A U73A
0.87
A43G A107C
1.17

Using the record for U15C G49A , report its self-cleavage.
1.21

// next record C19U A43G
0.62

// next record A65G U119C
0.04

// next record A69U A136G
0.06

// next record U47A G88A
0.01

// next record G74A U130C
0.87

// next record A43G U104C
1.68

// next record U20A G58C
0.08

// next record U47C U108C
1.62

// next record U26G G125U
1.59

// next record U9G C116G
1.18

// next record U13A U109C
1.17

// next record G54A U62A
0.01
